Ref: PubChem BioAssay (NCI)

Test system: CCRF-CEM leukemia
test.summary: NCI tumour cell line growth inhibition, 48 h
metric.name: GI50

I'd like to know its GI50. The molecule in question is Cc1ccc(N(CC(=O)Nc2ccc(S(=O)(=O)NC3CCN(C)CC3)cc2)S(=O)(=O)c2ccc(Cl)cc2)cc1
2940 nM

I'd like to know its GI50. The molecule in question is CN(C)CCCNc1nc2ccccc2c2c(=O)c3cc(F)ccc3sc12
2230 nM

I'd like to know its GI50. The molecule in question is NCCCNc1nc2ccccc2c2c(=O)c3cccc(F)c3sc12
1420 nM

I'd like to know its GI50. The molecule in question is CCCCN1C=CCN(CCCC)C1
> 100000 nM

I'd like to know its GI50. The molecule in question is COc1ccc(/C=C/C(=O)c2c(O)c(C)c(O)c3c2OC2=CC(O)=C(C(C)=O)C(=O)[C@]23C)cc1
702 nM

I'd like to know its GI50. The molecule in question is CCOC(=O)C(CC(C)C)NC(=O)C(Cc1ccc(N(CCCl)CCCl)cc1)NC(C)=O (centres undefined)
2520 nM

I'd like to know its GI50. The molecule in question is COc1cc(/C=C/[N+](=O)[O-])c([N+](=O)[O-])cc1OC
2130 nM

I'd like to know its GI50. The molecule in question is COc1ccccc1/C=C/C(=O)c1ccc(Nc2nc(Nc3ccc(F)cc3)nc(Nc3ccc(F)cc3)n2)cc1
5600 nM

I'd like to know its GI50. The molecule in question is COC1=C(C)C(=O)N2[C@@H]1[C@H](c1ccccc1)OC21C=CC(=O)C=C1
925 nM

I'd like to know its GI50. The molecule in question is Cn1cc(-c2csc(-c3c[nH]c4ccc(F)cc34)n2)c2cccnc21
6260 nM

More entries:
I'd like to know its GI50. The molecule in question is C=C(C)[C@@H]1/C=C(/C(C)C)CC[C@@]2(C)OC2CC[C@H](C)CC1=O (some centres undefined)
20300 nM

I'd like to know its GI50. The molecule in question is CC(c1ccccc1)N1C(=O)CSC1=S (centres undefined)
941 nM

I'd like to know its GI50. The molecule in question is O=C(/C=C/c1c(-c2ccccc2)[nH]c2ccccc12)S(=O)(=O)c1ccccc1
5410 nM

I'd like to know its GI50. The molecule in question is CCC(=O)OCC1OC(n2cnc3c(=S)nc(N)[nH]c32)C(OC(=O)CC)C1OC(=O)CC (centres undefined)
2120 nM

* * *

Tested on: SK-MEL-2 melanoma
test.summary: NCI tumour cell line growth inhibition, 48 h
Recorded log10 of TGI by entry
Note the log scale: values are log10 of TGI expressed in µM.

Check out these entries, answers already filled in.
I'd like to know its log10 of TGI. The compound in question is [O-][n+]1c(-c2ccccc2)oc2ccccc21
1.61

I'd like to know its log10 of TGI. The compound in question is FC(F)(F)c1ccc2c(c1)nc(-c1ccccc1)n2CC1CCCN2CCCCC12 (stereo unspecified)
1.47

I'd like to know its log10 of TGI. The compound in question is Clc1ccc(Cc2nc3cc(Cl)c(Cl)cc3n2CC2CCCN3CCCCC23)cc1Cl (stereo unspecified)
1.29

I'd like to know its log10 of TGI. The compound in question is CCCCCCCCCCCCC(=O)CCCCC(=O)O
1.68

I'd like to know its log10 of TGI. The compound in question is Cc1ccc(O)c(-c2cc(-c3cccc(Br)c3)c(C#N)c(N)n2)c1
1.71

I'd like to know its log10 of TGI. The compound in question is O=C(c1ccc(Oc2ccccc2)cc1Cl)c1c[nH]c2ncnc(N[C@@H]3CC[C@@H](CO)OC3)c12
-0.06

I'd like to know its log10 of TGI. The compound in question is C=CCOC1=C(OC(C)=O)C(=O)OC1C1COC(C)(C)O1 (stereo unspecified)
2.00

I'd like to know its log10 of TGI. The compound in question is COC1=C(C)C(=O)N2[C@@H]1[C@H](c1ccccc1)OC21C=CC(=O)C=C1
1.29

More entries:
I'd like to know its log10 of TGI. The compound in question is O=C1c2cccc3cc4ccccc4c(c23)C(=O)N1CCNCCN1C(=O)c2cccc3cc4ccccc4c(c23)C1=O
0.50

I'd like to know its log10 of TGI. The compound in question is O=[N+]([O-])c1cc([N+](=O)[O-])c(NN=C(c2ccc(O)cc2)c2ccc(O)cc2)cc1Cl
1.03
